Measured inhibition at 10 µM, listed per entry.
measured_target: HDAC6 enzyme (Homo sapiens, UniProt Q9UBN7)
Construct: transducing full length HDAC6 gene into Sf-9 insect cells; GST; purchased SignalChem; host or cells: Sf-9 insect cells
Sequence (Q9UBN7 1-1215): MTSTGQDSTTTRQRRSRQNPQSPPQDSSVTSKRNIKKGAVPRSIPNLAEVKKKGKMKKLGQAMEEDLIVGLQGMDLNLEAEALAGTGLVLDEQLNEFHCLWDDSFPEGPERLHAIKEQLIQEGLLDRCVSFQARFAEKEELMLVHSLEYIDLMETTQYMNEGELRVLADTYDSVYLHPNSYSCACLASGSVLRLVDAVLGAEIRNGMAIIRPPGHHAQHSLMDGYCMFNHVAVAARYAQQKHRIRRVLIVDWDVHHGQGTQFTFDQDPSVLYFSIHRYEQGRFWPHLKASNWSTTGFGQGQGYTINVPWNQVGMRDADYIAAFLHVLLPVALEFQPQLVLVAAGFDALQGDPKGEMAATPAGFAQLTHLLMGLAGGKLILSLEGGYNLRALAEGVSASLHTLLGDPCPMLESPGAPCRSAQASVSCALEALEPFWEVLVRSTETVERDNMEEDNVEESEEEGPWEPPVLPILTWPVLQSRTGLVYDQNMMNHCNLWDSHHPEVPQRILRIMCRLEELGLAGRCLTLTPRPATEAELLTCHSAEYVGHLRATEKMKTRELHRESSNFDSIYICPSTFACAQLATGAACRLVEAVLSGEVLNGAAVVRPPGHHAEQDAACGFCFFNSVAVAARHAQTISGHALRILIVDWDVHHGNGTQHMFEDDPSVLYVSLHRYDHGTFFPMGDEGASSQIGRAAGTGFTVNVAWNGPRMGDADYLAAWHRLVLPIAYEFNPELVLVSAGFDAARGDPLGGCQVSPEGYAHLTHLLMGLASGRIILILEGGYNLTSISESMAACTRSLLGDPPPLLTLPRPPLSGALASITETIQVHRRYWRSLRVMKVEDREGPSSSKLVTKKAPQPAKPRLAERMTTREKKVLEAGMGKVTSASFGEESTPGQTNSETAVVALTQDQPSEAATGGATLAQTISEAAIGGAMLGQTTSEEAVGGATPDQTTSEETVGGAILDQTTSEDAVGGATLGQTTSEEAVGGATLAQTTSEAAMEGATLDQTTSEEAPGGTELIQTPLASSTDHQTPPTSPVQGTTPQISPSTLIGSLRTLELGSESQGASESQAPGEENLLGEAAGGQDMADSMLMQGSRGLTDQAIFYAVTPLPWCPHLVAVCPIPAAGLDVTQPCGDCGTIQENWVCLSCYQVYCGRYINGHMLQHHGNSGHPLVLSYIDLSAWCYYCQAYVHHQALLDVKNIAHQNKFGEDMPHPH
run_description: HDAC6 enzyme inhibitory activity (HDAC-Glo I/II Assay kit)
Format: biochemical
test_parameters: 10 μM; wells without enzyme = 100% inhibition; read-out: HDAC6 inhibitory rate (%) (10 μM)
Only the number, expressed in %, is required.

molecule: O=C1OCCN1[C@@H]1CCCC[C@H]1N1Cc2ccc(-c3nnc(C(F)F)o3)cc2C1=O [Example 22]
inhibition at 10 µM (%): 98

molecule: CC(C)(C)OC(=O)N[C@@H]1CCCC[C@H]1N1Cc2c(F)cc(-c3nnc(C(F)F)o3)cc2C1=O [Example 148]
inhibition at 10 µM (%): 99

# input Endpoint output: inhibition at 10 µM of CC1(C)CC1C(=O)N[C@@H]1CCCC[C@H]1N1Cc2ccc(-c3nnc(C(F)F)o3)cc2C1=O (some centres unmarked) [Example 75] . Value?
# output 101

# input Param item: CC(=O)N1CC[C@@H](N2Cc3ccc(-c4nnc(C(F)F)o4)cc3C2=O)[C@H](c2ccc(F)cc2)C1 [Example 509]
# output 99

# input Also CC(F)(F)C(=O)N[C@H]1[C@H](N2Cc3ccc(-c4nnc(C(F)F)o4)cc3C2=O)CCCC1(F)F [Example 512] ?
# output 99

* * *

measured_target: HDAC6 enzyme (Homo sapiens)
Construct: transducing full length HDAC6 gene into Sf-9 insect cells; GST; purchased SignalChem; host or cells: Sf-9 insect cells
run_description: HDAC6 enzyme inhibitory activity (HDAC-Glo I/II Assay kit)
Format: biochemical
test_parameters: 10 μM; wells without enzyme = 100% inhibition; read-out: HDAC6 inhibitory rate (%) (10 μM)
Listed next: entries and their corresponding inhibition at 10 µM.
# number then unit; no other words

Below, each entry is followed by its recorded inhibition at 10 µM result.
compound: O=C1c2cc(-c3nnc(C(F)F)o3)ccc2CN1[C@@H]1CCCC[C@H]1NC(=O)C1(F)CC1 [Example 19]
measured_target: HDAC6 enzyme (Homo sapiens)
assay_readout: inhibition at 10 µM
test_value: 101%

compound: COc1cccc(CN2Cc3ncc(-c4nnc(C(F)F)o4)cc3C2=O)c1 [Example 266]
measured_target: HDAC6 enzyme (Homo sapiens)
assay_readout: inhibition at 10 µM
test_value: 99%

compound: Cc1cn2cc(-c3ccccc3N3Cc4ccc(-c5nnc(C(F)F)o5)cc4C3=O)ccc2n1 [Example 306]
measured_target: HDAC6 enzyme (Homo sapiens)
assay_readout: inhibition at 10 µM
test_value: 101%

compound: O=C1c2cc(-c3nnc(C(F)F)o3)cnc2CN1Cc1cccnc1 [Example 359]
measured_target: HDAC6 enzyme (Homo sapiens)
assay_readout: inhibition at 10 µM
test_value: 97%

compound: Cn1cc(C(=O)N[C@@H]2CCCC[C@H]2N2Cc3ccc(-c4nnc(C(F)F)o4)cc3C2=O)cn1 [Example 97]
measured_target: HDAC6 enzyme (Homo sapiens)
assay_readout: inhibition at 10 µM
test_value: 100%

compound: COC(=O)N1CCC[C@H](N2Cc3ccc(-c4nnc(C(F)F)o4)cc3C2=O)[C@H]1c1ccc(F)cc1 (racemic) [Example 578]
measured_target: HDAC6 enzyme (Homo sapiens)
assay_readout: inhibition at 10 µM
test_value: 100%

Shift focus to the following entry.
# input Query (compound): O=C1c2cc(-c3nnc(C(F)F)o3)ccc2CN1[C@@H]1CCCC[C@H]1N(C(=O)C(F)F)c1ccccn1 [Example 337] ; field requested: inhibition at 10 µM
# output 101%

* * *

measured_target: HDAC6 enzyme (Homo sapiens)
Construct: transducing full length HDAC6 gene into Sf-9 insect cells; GST; purchased SignalChem; host or cells: Sf-9 insect cells
run_description: HDAC6 enzyme inhibitory activity (HDAC-Glo I/II Assay kit)
Assay type: biochemical
test_parameters: 10 μM; wells without enzyme = 100% inhibition; read-out: HDAC6 inhibitory rate (%) (10 μM)
assay_readout: inhibition at 10 µM (%)
Reply numerically in %, unit not repeated.

Consider the reported inhibition at 10 µM for these compounds:
compound: Cc1ccc(S(=O)(=O)N2CCOC[C@@H]2CN2Cc3c(F)cc(-c4nnc(C(F)F)o4)cc3C2=O)cc1
test_value: 99
//
compound: Cn1cc(C(=O)NCC2CC2)c(N2Cc3ccc(-c4nnc(C(F)F)o4)cc3C2=O)n1
test_value: 96
//
compound: O=C1c2cc(-c3nnc(C(F)F)o3)cnc2CN1Cc1ccc(C(F)(F)F)cc1
test_value: 93
//
compound: N#C[C@@H]1CCCC[C@H]1N1Cc2ccc(-c3nnc(C(F)F)o3)cc2C1=O (racemic)
test_value: 97
//
compound: CCC(F)(F)C(=O)N[C@@H]1CCCC[C@H]1N1Cc2c(F)cc(-c3nnc(C(F)F)o3)cc2C1=O
test_value: 101
//
compound: O=C1c2cc(-c3nnc(C(F)F)o3)ccc2CN1[C@@H]1CCCC[C@H]1N1CCCS1(=O)=O
test_value: 99

# input Item under review: O=C(N[C@@H]1CCCC[C@H]1N1Cc2ccc(-c3nnc(C(F)F)o3)cc2C1=O)OC1CC1 . Reported inhibition at 10 µM?
# output 101

# input Next record, please: O=C1c2cc(-c3nnc(C(F)F)o3)ccc2CN1c1ccccc1-c1cnn(Cc2ccccn2)c1
# output 97

* * *

molecules and their reported inhibition at 10 µM
measured_target: HDAC6 enzyme (Homo sapiens)
Construct: transducing full length HDAC6 gene into Sf-9 insect cells; GST; purchased SignalChem; host or cells: Sf-9 insect cells
run_description: HDAC6 enzyme inhibitory activity (HDAC-Glo I/II Assay kit)
Format: biochemical
test_parameters: 10 μM; wells without enzyme = 100% inhibition; read-out: HDAC6 inhibitory rate (%) (10 μM)
Reply numerically in %, unit not repeated.

// below: answered molecules
molecule: CC(C)(C(=O)N[C@H]1CCCC[C@H]1N1Cc2ccc(-c3nnc(C(F)F)o3)cc2C1=O)C(F)(F)F
assay_readout: inhibition at 10 µM
unit_string: %
test_value: 98
//
molecule: O=C1c2cc(-c3nnc(C(F)F)o3)ccc2CN1c1ccccc1-c1ccc2c(c1)OCC2
assay_readout: inhibition at 10 µM
unit_string: %
test_value: 99
//
molecule: O=C(N[C@@H]1CCCC[C@H]1N1Cc2ccc(-c3nnc(C(F)F)o3)cc2C1=O)c1ccc(Cl)cc1
assay_readout: inhibition at 10 µM
unit_string: %
test_value: 99
//
molecule: Cn1nccc1-c1ccccc1N1Cc2ccc(-c3nnc(C(F)F)o3)cc2C1=O
assay_readout: inhibition at 10 µM
unit_string: %
test_value: 101
//
molecule: O=C1c2cc(-c3nnc(C(F)F)o3)ccc2CN1c1ccnn1-c1ccccc1
assay_readout: inhibition at 10 µM
unit_string: %
test_value: 99
//
molecule: CCCCC(=O)N[C@@H]1CCCC[C@H]1N1Cc2ccc(-c3nnc(C(F)F)o3)cc2C1=O
assay_readout: inhibition at 10 µM
unit_string: %
test_value: 96
//
molecule: O=C(N[C@@H]1CCCC[C@H]1N1Cc2ccc(-c3nnc(C(F)F)o3)cc2C1=O)OCCC(F)(F)F
assay_readout: inhibition at 10 µM
unit_string: %
test_value: 94
//
molecule: O=C(N[C@@H]1CCCC[C@H]1N1Cc2ccc(-c3nnc(C(F)F)o3)cc2C1=O)C1CCC1
assay_readout: inhibition at 10 µM
unit_string: %
test_value: 100

# input Which measured inhibition at 10 µM value corresponds to CC(C)(C)OC(=O)N[C@@H]1CCC(F)(F)C[C@H]1N1Cc2ccc(-c3nnc(C(F)F)o3)cc2C1=O ?
# output 99

# input Please do the same for CC(=O)N[C@@H]1CCCC[C@H]1N1Cc2c(F)cc(-c3nnc(C(F)F)o3)cc2C1=O as well.
# output 99

# input Repeat with O=C1c2cc(-c3nnc(C(F)F)o3)cc(F)c2CN1C[C@H]1COCCN1CC(F)(F)C(F)F
# output 98
